experiment: protein stability index of a GFP-peptide fusion (yeast GPS) (PSI 1-4); higher = more stable; sorted into four equal gates, so the index is relative within each strain; conditions: san1∆
Measure name: protein stability index
Answer using only a numeral; do not append any unit.

Reported protein stability index ( DAFVATAFATEFFVQVL [DLS1] ) = 3.12

Reported protein stability index ( KGDLRRGFIKSEGSGSS [RPC53] ) = 3.31

Reported protein stability index ( LLHEMTQTYMQMIELNR [GRR1] ) = 2.2

###

experiment: protein stability index of a GFP-peptide fusion (yeast GPS) (PSI 1-4); higher = more stable; sorted into four equal gates, so the index is relative within each strain; details: pdr5∆
Assignment: determine reported protein stability index for the given sequences.
Answer using only a numeral; do not append any unit.

Reported protein stability index ( PPPAPHNLHPQIGQVPL [SNF5] ) = 2.94

Reported protein stability index ( KDTPFTIYDGEAVAKYI [PRE5] ) = 2.97

Reported protein stability index ( IYGVEWLIEGKLYVDAV [YDL116W/NUP84] ) = 1.2

Reported protein stability index ( WKLLNQLVLRGLLSQAI [YJR042W/NUP85] ) = 1.3

Reported protein stability index ( SSQLNKLTDEQSSLDVA [SIR3] ) = 2.93

Reported protein stability index ( FQIEADFIGHNSNINTL [ASC1] ) = 2.63

Reported protein stability index ( RLISSKMPGGFTITVAR [FAS2] ) = 2

Reported protein stability index ( LYGKRFFPYYVHTIIAG [PRE7] ) = 1.23

Reported protein stability index ( SHLFNEYSYVDSNMDSI [RPN4] ) = 3.56

Reported protein stability index ( LFGAKPQNTTATTGGLF [YGR119C/NUP57] ) = 3.06

Reported protein stability index ( PSQTLFSISYKPPTQKT [SRP21] ) = 2.2

Reported protein stability index ( TNQIFQSRRYNLRRHSD [SIN4] ) = 3.18

Reported protein stability index ( MHRKSLRRASATVPSAP [YAR002W/NUP60] ) = 2.82

Reported protein stability index ( KALKTNINFASGVKNDI [CDC53] ) = 3.22

Reported protein stability index ( KEKIEKLSKSATESIKN [SMC1] ) = 2.99

Reported protein stability index ( IEYCSAQPSVQSSFAGT [FAS2] ) = 3.07
